Biological target: T1, human gamma (γ) common chain expressed on CHO cells (human, UniProt P31785 23-369)
T1 construct: whole, on cells; Control protein; also called human IL-2R-γ common subunit; human γ-common
T1 sequence (looked up): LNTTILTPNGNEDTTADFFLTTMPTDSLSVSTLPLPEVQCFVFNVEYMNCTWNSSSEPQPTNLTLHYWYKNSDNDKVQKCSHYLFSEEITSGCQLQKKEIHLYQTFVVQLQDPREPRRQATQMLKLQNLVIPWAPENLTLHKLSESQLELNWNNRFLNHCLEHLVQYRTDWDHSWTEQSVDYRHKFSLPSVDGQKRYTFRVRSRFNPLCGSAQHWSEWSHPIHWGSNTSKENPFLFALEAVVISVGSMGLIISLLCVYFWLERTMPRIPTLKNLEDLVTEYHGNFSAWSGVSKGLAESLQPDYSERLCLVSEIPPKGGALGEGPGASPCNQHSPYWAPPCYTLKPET
Assay: cell ELISA, CHO cells
metric_name: A450 (13 nM Ab) (A450)
Write down the numeric answer in A450 and omit the unit.

Known A450 (13 nM Ab) results, listed for orientation:
{"binder": "AbR (antibody, human IgG1, V domains shown, CDR3 graft, residue limits derived as for m29; also called VH3/VL18; VH3DM/VL18) VH: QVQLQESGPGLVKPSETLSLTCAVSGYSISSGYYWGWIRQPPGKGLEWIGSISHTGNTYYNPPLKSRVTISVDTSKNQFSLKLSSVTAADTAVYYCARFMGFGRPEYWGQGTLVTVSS VL: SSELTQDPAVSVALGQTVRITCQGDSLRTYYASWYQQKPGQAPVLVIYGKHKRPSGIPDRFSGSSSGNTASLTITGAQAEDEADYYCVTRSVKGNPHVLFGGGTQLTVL", "A450 (13 nM Ab), A450": 0.109}
{"binder": "AbC (antibody, IgG1, V domains shown, As for AbA: IgG1/lambda, CDR3 graft, residue limits derived; also called VHP/VL11) VH: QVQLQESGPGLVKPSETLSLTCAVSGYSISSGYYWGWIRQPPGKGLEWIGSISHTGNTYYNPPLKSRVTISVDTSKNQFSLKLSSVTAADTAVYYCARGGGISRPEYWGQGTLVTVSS VL: SSELTQDPAVSVALGQTVRITCQGDSLRTYYASWYQQKPGQAPVLVIYGKHKRPSGIPDRFSGSSSGNTASLTITGAQAEDEADYYCSSRSRHGNPHVLFGGGTQLTVL", "A450 (13 nM Ab), A450": 0.137}

Now consider the entry below.
Field request: A450 (13 nM Ab) | item: AbO (antibody, human IgG1, V domains shown, CDR3 graft, residue limits derived as for m29; also called VHP/VL16; VHPTM/VL16) VH: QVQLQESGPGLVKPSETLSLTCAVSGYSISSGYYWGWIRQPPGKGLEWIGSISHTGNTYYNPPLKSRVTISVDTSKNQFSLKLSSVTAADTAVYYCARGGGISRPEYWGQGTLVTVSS VL: SSELTQDPAVSVALGQTVRITCQGDSLRTYYASWYQQKPGQAPVLVIYGKHKRPSGIPDRFSGSSSGNTASLTITGAQAEDEADYYCVTRSAKGNPHVLFGGGTQLTVL 0.108
